- assayed_target: P2X7 receptor (Homo sapiens, UniProt Q99572)
- Construct: 200 μl of a suspension of THP-1 cells; endogenous in cells; host or cells: THP-1 cells
- Sequence (Q99572 whole entry): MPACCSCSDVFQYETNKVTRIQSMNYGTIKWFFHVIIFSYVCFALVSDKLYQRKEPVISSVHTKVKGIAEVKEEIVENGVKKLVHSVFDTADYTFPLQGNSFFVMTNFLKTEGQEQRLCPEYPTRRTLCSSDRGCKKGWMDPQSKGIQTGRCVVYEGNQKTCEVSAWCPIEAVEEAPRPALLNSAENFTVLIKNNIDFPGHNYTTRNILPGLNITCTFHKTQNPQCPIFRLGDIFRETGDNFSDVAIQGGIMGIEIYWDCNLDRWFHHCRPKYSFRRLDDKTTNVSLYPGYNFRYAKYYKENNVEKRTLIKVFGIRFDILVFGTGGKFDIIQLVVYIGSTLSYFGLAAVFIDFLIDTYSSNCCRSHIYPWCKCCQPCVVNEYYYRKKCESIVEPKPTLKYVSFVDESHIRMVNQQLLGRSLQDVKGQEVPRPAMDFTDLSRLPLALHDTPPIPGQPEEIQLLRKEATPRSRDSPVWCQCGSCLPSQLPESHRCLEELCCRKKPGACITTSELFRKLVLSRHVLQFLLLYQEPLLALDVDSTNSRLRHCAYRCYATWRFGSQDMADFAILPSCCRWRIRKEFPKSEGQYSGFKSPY
- assay_procedure: P2X7 assay (bbATP-induced ethidium bromide fluorescence in THP-1 cells)
- Format: cell-based
- details: bbATP, read-out: P2X7 IC50
pIC50: −log10 of the molar value.
readout: pIC50

Look up pIC50 of O=C(NCC1(O)CCCCCC1)c1c(Cl)ccc2nc(N3CC[C@H](NCCO)C3)ccc12 [Example 1] and report it.
≥ 8.30

---

- assay_procedure: Plasma protein binding (equilibrium dialysis)
- Type: in vitro ADME
- details: pH 7.4; human plasma, 37° C., 5 μM compound; read-out: human plasma protein binding (% bound) (converted)
readout: fraction unbound at 5 µM
Lab note: jot down the number only; don't add units.

Look up fraction unbound at 5 µM of O=C(NCC1(O)CCCCCC1)c1c(Cl)ccc2nc(N3CC[C@H](NCCO)C3)ccc12 [Example 1] and report it.
0.3

meta.source: patent US8106073B2
